System: HeLa cells
Experiment: Cell cycle assay in HeLa cells
Type: cell-based, human
Settings: HeLa cells, 150 nM oligomeric compound, 24 hours, relative to untreated control (UTC = 100)
Procedure: In some embodiments, HeLa cells were plated on collagen-coated 24-well plates at 50,000-60,000 cells per well, and allowed to attach to wells overnight. […] In some embodiments, HeLa cells were also treated with oligomeric compounds targeting miRNAs. […] The cell cycle profile was analyzed with the ModFit program (Verity Software House, Inc., Topsham Me.). […]
In the oligonucleotide strings, read from the 5' end, every base follows the letter of its sugar. An asterisk marks phosphorothioate; unmarked linkages are phosphodiester. Other units and linkages are bracketed, terminal groups are in braces. A string of capitals states the bases alone. e = 2'-O-(2-methoxyethyl) (MOE); [5mC] = 5-methylcytosine; d = 2'-deoxy (DNA)
Metric: % cells in cell cycle phase G2/M

Field: example entries. Status: answers known.
328419 (antisense eT*eG*eT*eT*eG*d[5mC]*d[5mC]*dT*dA*dA*d[5mC]*dG*dA*dA*d[5mC]*eA*e[5mC]*eA*eG*eA) [compound 328419]: 124%
328119 (antisense eA*eA*eT*eA*eA*e[5mC]*eA*e[5mC]*eA*e[5mC]*eA*eT*e[5mC]*e[5mC]*eA*e[5mC]*eT*eT*eT*eA*eA) [compound 328119]: 112%
327885 (antisense eA*e[5mC]*eT*eA*e[5mC]*e[5mC]*eT*eG*e[5mC]*eA*e[5mC]*eT*eG*eT*eA*eA*eG*e[5mC]*eA*e[5mC]*eT*eT*eT*eG) [compound 327885]: 121%

Request: API: value(readout=% cells in cell cycle phase G2/M, system=HeLa cells) for record 338826 (antisense CGGATCCTGTTACCTCACCA; all 2'-MOE, all phosphorothioate, methylation of C not given here) [compound 338826]
Response: 90%

Request: Short answer please: % cells in cell cycle phase G2/M, HeLa cells, entry 327878 (antisense e[5mC]*eT*eA*eG*eT*eG*eG*eT*e[5mC]*e[5mC]*eT*eA*eA*eA*e[5mC]*eA*eT*eT*eT*e[5mC]*eA*e[5mC]) [compound 327878]
Response: 122%

Request: Param readout = % cells in cell cycle phase G2/M; param system = HeLa cells; param query = 338756 (antisense TGCCCTGCTCAGAGCCCTAG; all 2'-MOE, all phosphorothioate, methylation of C not given here) [compound 338756] ; response: value
Response: 99%

Request: What reported % cells in cell cycle phase G2/M corresponds to 338637 (antisense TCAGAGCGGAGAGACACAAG; all 2'-MOE, all phosphorothioate, methylation of C not given here) [compound 338637] on HeLa cells?
Response: 84%

Request: Param readout = % cells in cell cycle phase G2/M; param system = HeLa cells; param query = 338666 (antisense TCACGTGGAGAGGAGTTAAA; all 2'-MOE, all phosphorothioate, methylation of C not given here) [compound 338666] ; response: value
Response: 158%

Request: // fetch HeLa cells % cells in cell cycle phase G2/M for 338713 (antisense ACCTCTCAGGAAGACGGACT; all 2'-MOE, all phosphorothioate, methylation of C not given here) [compound 338713]
Response: 101%
